- Tested on: Toledo cells
- PROCEDURE DETAILS: Toledo cell killing experiment (CellTiter-Glo cell viability)
- Type: cell-based
- ASSAY SETUP: Homo sapiens, 48 h incubation, CTG luminescence
READOUT LABEL: log10 of GI50 (log10 of the value in nM)
// units: nM (pre-log); metric: GI50; scale: log10

Example cases with answers are listed next.
[
  {
    "COMPOUND": "Cn1c(C2CCC(NC(=O)CCCCNc3cccc4c3C(=O)N(C3CCC(=O)NC3=O)C4=O)CC2)nc2c3c(C4CCOCC4)c[nH]c3ncc21 (stereo not drawn)",
    "log10 of GI50": 0.18
  },
  {
    "COMPOUND": "O=C1CCC(N2C(=O)c3cccc(NCc4cccc(C(=O)N[C@H]5CC[C@H](c6nc7cccnc7s6)CC5)c4)c3C2=O)C(=O)N1 (stereo partly drawn)",
    "log10 of GI50": 0.73
  },
  {
    "COMPOUND": "Cn1c(C2CCC(NC(=O)c3cc(CNc4cccc5c4C(=O)N(C4CCC(=O)NC4=O)C5=O)ccn3)CC2)nc2ccncc21 (stereo not drawn)",
    "log10 of GI50": 0.55
  },
  {
    "COMPOUND": "COc1ccc2c(c1)nc([C@H]1CC[C@H](COc3cc(CNc4cccc5c4C(=O)N(C4CCC(=O)NC4=O)C5=O)ccn3)CC1)n2C (stereo partly drawn)",
    "log10 of GI50": -0.35
  },
  {
    "COMPOUND": "Cn1c2cnccc2nc1[C@H]1CC[C@H](NC(=O)c2cc(CNc3cccc4c3C(=O)N(C3CCC(=O)NC3=O)C4=O)ccn2)CC1 (stereo partly drawn)",
    "log10 of GI50": 1.07
  }
]

Field: next compound
Quick one: log10 of GI50 for O=C1CCC(N2C(=O)c3cccc(NCc4cccc(NC(=O)[C@H]5CC[C@H](c6nc7cccnc7s6)CC5)c4F)c3C2=O)C(=O)N1 (stereo partly drawn) ?
0.61

----------
- Test system: HL60 cells
- PROCEDURE DETAILS: HL60 cell killing experiment (CellTiter-Glo cell viability)
- Assay type: cell-based
- ASSAY SETUP: Homo sapiens, HL-60, 48 h incubation, CTG luminescence
READOUT LABEL: GI50

[
  {
    "MOLECULE": "CN(C[C@H]1CC[C@H](c2nc3cccnc3s2)CC1)c1cc(CNc2cccc3c2C(=O)N(C2CCC(=O)NC2=O)C3=O)ccn1 (some centres unmarked)",
    "GI50": "< 100 nM"
  },
  {
    "MOLECULE": "COc1ccc2c(c1)nc(C1CCC(NC(=O)c3cccc(CNc4cccc5c4C(=O)N(C4CCC(=O)NC4=O)C5=O)c3)CC1)n2C (centres unmarked)",
    "GI50": "< 100 nM"
  },
  {
    "MOLECULE": "Cn1c2cnccc2nc1[C@H]1CC[C@H](N2Cc3ccc(CNc4cccc5c4C(=O)N(C4CCC(=O)NC4=O)C5=O)cc3C2=O)CC1 (some centres unmarked)",
    "GI50": "< 100 nM"
  },
  {
    "MOLECULE": "O=C1CCC(N2C(=O)c3cccc(NCc4cccc(NC(=O)[C@H]5CC[C@H](c6nc7cccnc7s6)CC5)n4)c3C2=O)C(=O)N1 (some centres unmarked)",
    "GI50": "< 100 nM"
  }
]

Field: next molecule
Quick one: GI50 for Cn1c2cnccc2nc1[C@H]1CC[C@H](NC(=O)c2cccc(CNc3cccc4c3C(=O)N(C3CCC(=O)NC3=O)C4=O)c2)CC1 (some centres unmarked) ?
< 100 nM
